system: COLO 205; assay: NCI tumour cell line growth inhibition, 48 h
Active and inactive are the calls of the source. No stated cut-off is given here; in the data, active = GI50 up to about 1.1 µM and inactive = higher.
Would you mind answering with one of these outcomes? active, inactive

Look over these answered cases.
- compound: "Cc1c2ccncc2c(C)c2c1[nH]c1ccc(OCC(F)(F)F)cc12"
  assigned.class: "inactive"
- compound: "O=C1CSC(C(/N=N/c2ccccc2)=C2Nc3ccccc3N2)=N1"
  assigned.class: "inactive"
- compound: "Cc1cn(C2CC(OC(c3ccccc3)(c3ccccc3)c3ccccc3)C(COC(c3ccccc3)(c3ccccc3)c3ccccc3)O2)c(=O)[nH]c1=O (configuration not stated)"
  assigned.class: "inactive"
- compound: "COc1ccc(-n2c(N)c(C#N)c(C#N)c2-c2ccco2)cc1"
  assigned.class: "inactive"
- compound: "COC(=N)/C(=C1\\OC(=N)C(c2ccc(Cl)cc2)=C1O)c1ccc(Cl)cc1"
  assigned.class: "inactive"

In: What call does the record list for "N#CCCN(c1ccc(/C=N/c2nc(-c3ccccc3)cs2)cc1)S(=O)(=O)c1ccccc1" ?
Out: inactive

In: Record request — test call for "COCCCCCC(=O)CP(=O)(OC)OC"
Out: inactive

In: # outcome recorded in this test, key = "COc1ccc(-c2nc3ccccc3s2)cc1OC"
Out: inactive
